Target: ABL1(E274K) (Homo sapiens, UniProt P00519, E255K)
Sequence (P00519 1-1149 isoform P00519-2 E274K): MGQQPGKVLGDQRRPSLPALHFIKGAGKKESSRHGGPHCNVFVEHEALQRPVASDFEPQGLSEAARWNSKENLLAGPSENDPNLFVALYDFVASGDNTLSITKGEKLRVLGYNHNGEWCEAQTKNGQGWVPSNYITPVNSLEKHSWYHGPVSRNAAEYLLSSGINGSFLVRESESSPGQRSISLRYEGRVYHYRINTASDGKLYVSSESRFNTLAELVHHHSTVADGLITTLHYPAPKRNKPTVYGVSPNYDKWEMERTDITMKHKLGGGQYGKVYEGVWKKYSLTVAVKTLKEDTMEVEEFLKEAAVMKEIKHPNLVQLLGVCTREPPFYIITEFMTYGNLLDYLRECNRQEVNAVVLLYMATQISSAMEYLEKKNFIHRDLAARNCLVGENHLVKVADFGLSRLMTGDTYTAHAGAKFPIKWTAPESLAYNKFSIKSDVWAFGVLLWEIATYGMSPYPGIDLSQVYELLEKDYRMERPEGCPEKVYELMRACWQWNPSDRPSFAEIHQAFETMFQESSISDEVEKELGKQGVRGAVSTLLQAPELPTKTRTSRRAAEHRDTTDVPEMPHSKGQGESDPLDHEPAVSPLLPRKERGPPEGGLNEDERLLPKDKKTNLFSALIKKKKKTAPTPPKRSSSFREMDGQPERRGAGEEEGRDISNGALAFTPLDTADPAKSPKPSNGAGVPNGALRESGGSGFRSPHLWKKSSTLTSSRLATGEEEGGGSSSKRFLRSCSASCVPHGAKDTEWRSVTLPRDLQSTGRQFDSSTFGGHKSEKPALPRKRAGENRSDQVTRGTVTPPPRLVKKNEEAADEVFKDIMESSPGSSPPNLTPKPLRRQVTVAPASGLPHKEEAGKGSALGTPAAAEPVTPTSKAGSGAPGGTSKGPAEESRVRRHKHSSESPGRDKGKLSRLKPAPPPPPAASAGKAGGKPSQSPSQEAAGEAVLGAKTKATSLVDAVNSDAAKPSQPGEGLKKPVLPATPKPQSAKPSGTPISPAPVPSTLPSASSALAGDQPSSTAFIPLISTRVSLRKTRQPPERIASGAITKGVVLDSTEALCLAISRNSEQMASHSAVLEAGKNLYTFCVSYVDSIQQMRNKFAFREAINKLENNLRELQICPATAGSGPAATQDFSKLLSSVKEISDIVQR
Experiment: Binding constant (Kd) measurement, phage-displayed kinase competition binding assay: ABL1(E274K)
Conditions: competition with immobilized ATP site ligand
OBSERVATION TYPE: Kd

Q) Respond only with Kd recorded for O=C(Cc1ccc(OCc2ccccc2)cc1)Nc1nc2cc(Cl)ccc2o1 [Compound B15]
A) > 10 µM
